Target: T1, catalytic domain of human MMP-14 (cdMMP-14) (human, UniProt P50281 114-320)
T1 construct: range 114-320; Produced active in E. coli periplasm; biotinylated for BLI/ELISA
Experiment: biolayer interferometry; biotinylated protease on streptavidin sensor, Fab in solution
pKd: −log10 of the molar value.

{"Binder": "anti-MMP-14 Fab 2B4 (Fab, V domains shown, Fab from a synthetic human Fab library, produced in E. coli periplasm; also called Clone 2B4) VH: EVQLVESGGGLVQPGGSLRLSCAASGFNLYSSYIHWVRQAPGKGLEWVASIYSSYSSTYYADSVKGRFTISADTSKNTAYLQMNSLRAEDTAVYYCARSDSAVYSVRRMGSSGLAAYAMDYWGQGTLVTVSS VL: DIQMTQSPSSLSASVGDRVTITCRASQSVSSAVAWYQQKPGKAPKLLIYSASSLYSGVPSRFSGSRSGTDFTLTISSLQPEDFATYYCQQYSYGYSSLITFGQGTKVEIKR", "pKd": 7.18}
{"Binder": "anti-MMP-14 Fab 2B10 (Fab, V domains shown, Fab from a synthetic human Fab library, produced in E. coli periplasm; also called Clone 2B10) VH: EVQLVESGGGLVQPGGSLRLSCAASGFNIYYSYMHWVRQAPGKGLEWVASIYPSYGYTYYADSVKGRFTISADTSKNTAYLQMNSLRAEDTAVYYCARQLFACWRQSILTPPLLSAMMMGYAMDYWGQGTLVTVSS VL: DIQMTQSPSSLSASVGDRVTITCRASQSVSSAVAWYQQKPGKAPKLLIYSASSLYSGVPSRFSGSRSGTDFTLTISSLQPEDFATYYCQQYSVAYVWLITFGQGTKVEIKR", "pKd": 7.34}
{"Binder": "anti-MMP-14 Fab 2B12 (Fab, V domains shown, Fab from a synthetic human Fab library, produced in E. coli periplasm; also called Clone 2B12) VH: EVQLVESGGGLVQPGGSLRLSCAASGFNIYYSSMHWVRQAPGKGLEWVAYIYSSSSYTYYADSVKGRFTISADTSKNTAYLQMNSLRAEDTAVYYCARDCCSCVFSQSAGITLACVYVMDYWGQGTLVTVSS VL: DIQMTQSPSSLSASVGDRVTITCRASQSVSSAVAWYQQKPGKAPKLLIYSASSLYSGVPSRFSGSRSGTDFTLTISSLQPEDFATYYCQQWGPHYAPITFGQGTKVEIKR", "pKd": 7.12}
